- Test system: IGROV1 ovarian
- test description: NCI-60 one-dose screen, 48 h
- test parameters: 10 µM unless noted
About 83,000 compounds went through this panel and 20% of them were active in at least one assay; those are over-represented in the sample as a whole. The source made the active and inactive calls. The calls were made as follows: active = growth percent below 10; inactive = the rest.
Give your call using only these classes: YES = active, NO = inactive

In: Hi, do you know how CNCCCNc1ccnc2cc(Cl)ccc12 came out in this test?
Out: YES

In: I would be grateful if you could indicate the recorded call for CC1=C(C(=O)Nc2ccc(F)cc2)C(c2ccc(C)cc2)C2=C(CC(C)(C)CC2=O)N1 (centres undefined) .
Out: NO

In: Per the records of this test, what outcome belongs to O=c1cc(N2CCOCC2)oc2c(-c3ccc4c(c3)OCCO4)csc12 ?
Out: YES

In: // return assay outcome for O=[N+]([O-])c1cc(F)c2cccnc2c1O
Out: YES

In: For O=C1OC(c2ccc(-c3ccccc3)cc2)=C/C1=C/c1c(Cl)cccc1Cl , what call appears in the results of this test?
Out: NO

In: Per the assay record, what outcome was assigned to O=C1/C(=C\c2cccn2Cc2ccc(Cl)cc2)c2ccccc2N1c1c(Cl)cccc1Cl ?
Out: NO

In: Recorded test outcome, item COC(=O)C1(C)COP(=O)(NC23CC4CC(CC(C4)C2)C3)OC1 (centres undefined)
Out: NO

In: Query: recorded result category for O=C(NCC(c1ccsc1)N1CCCCCC1)c1ccc(C(F)(F)F)cc1 (centres undefined) in this test
Out: NO

In: Per the records of this test, what outcome belongs to CC(C)(C)NC(=O)C(OC(=O)C1CCc2cc(F)ccc2O1)c1ccccc1Cl (centres undefined) ?
Out: NO

====

Please go through the items and note down their growth.
- Test system: RPMI-8226 leukemia
- test description: NCI-60 one-dose screen, 48 h (100 = growth as untreated, 0 = no growth, -100 = all killed)
- test parameters: 10 µM unless noted
Compounds without any hit were thinned out: in the full panel of roughly 83,000, 20% have a hit.
Give your result in % as a bare value.

In: Using the record for Cc1nn(-c2ccc(Cl)cc2)c(=O)n1CCN1CCOCC1 , report its growth.
Out: 83.1

In: I have this molecule here, Fc1ccc(-c2ccnc3nc(-c4ccncc4)nn23)cc1 , and I need its recorded growth.
Out: 98.5

In: Query (molecule): COCCn1c(Nc2ccc(C(=O)NO)cc2)nc2ccccc21 ; field requested: growth
Out: 44

In: Can you share its growth? I mean this molecule: Oc1ccc(Cl)cc1-c1cc(-c2ccccc2Cl)[nH]n1
Out: 42.3

In: Quick check: growth of c1ccc(C(CC2=NCCCN2)c2ccccc2)cc1 ?
Out: 116

In: What value of growth has been reported for the following molecule? COc1ccc(C2CC(c3cccc(Nc4ccnc5cc(Cl)ccc45)c3)=NN2c2ccccc2)cc1 (stereo not drawn)
Out: 67.9

In: Can you look up the measured growth of CSC(=S)N/N=C(\C)c1ccccn1 for me?
Out: 12

In: Entry C/C=C(\C)C(C(=O)NC1CCCCC1)N(C(=O)C1CCc2cc(F)ccc2O1)c1ccc([N+](=O)[O-])cc1 (stereo not drawn) : reported growth = ?
Out: 79.1

====

- Test system: COLO 205 colon
- test description: NCI-60 one-dose screen, 48 h (100 = growth as untreated, 0 = no growth, -100 = all killed)
- test parameters: 10 µM unless noted
Compounds without any hit were thinned out: in the full panel of roughly 83,000, 20% have a hit. The source made the active and inactive calls. How the source made its calls: active means growth percent below 10; inactive means the rest.
Provide the recorded growth for the entries that follow.

In: Can you share its growth? I mean this compound: COc1ccc([C@@H]2[C@@H](Oc3ccccc3)C(=O)N2c2cc(OC)c(OC)c(OC)c2)cc1F
Out: -41.2% (active)

In: Any idea what its growth is? The compound is CC1=C(C(=O)Nc2ccc(F)cc2)C(c2ccc(Cl)cc2)C2=C(CC(C)(C)CC2=O)N1 (centres undefined)
Out: 97% (inactive)

In: Form field: reported growth of N#Cc1c(NN)n(C2OC(CO)C(O)C2O)c2ncnc(N)c12 (centres undefined)
Out: -32.7% (active)

In: Consider the compound COc1cc(/C=C2\C(=O)Nc3ccc(N(C)C)cc32)cc(OC)c1OC and give its measured growth.
Out: 28% (inactive)

====

- System: TK-10 renal
- test description: NCI-60 one-dose screen, 48 h (100 = growth as untreated, 0 = no growth, -100 = all killed)
- test parameters: 10 µM unless noted
About 83,000 compounds went through this panel and 20% of them were active in at least one assay; those are over-represented in the sample as a whole.
measured attribute: growth (%)
Give a bare numeral; the unit % is implied.

In: Record request: growth value, item C#CC[C@@H]1C[C@]2(C)[C@H]3CC=C4[C@H]5[C@@H](C)[C@H](C)CC[C@]5(C(=O)NCCCCN)CC[C@@]4(C)[C@]3(C)CC[C@H]2C(C)(C)[C@H]1OC(C)=O
Out: 97.7

In: Would you kindly share the measured growth for O=C(NNC(=S)Nc1ccccc1)c1ccc(Nc2ncnc3c2cnn3-c2cccc(Br)c2)cc1 ?
Out: 106

In: Which growth value belongs to COc1cc2nccc(Oc3ccc(NC(=O)C4(C(=O)Nc5ccc(F)cc5)CC4)cc3)c2cc1OC(=O)c1ccc(N)cc1 ?
Out: 72.2

In: Tell me the measured growth of Nc1ccc(N(O)/C=C2\C=CC=CC2=O)cc1N , please.
Out: 133

In: Quick check: growth of Cc1ccccc1N1C(c2ccccc2)=NNC12C=CC(=O)c1c(O)cccc12 (stereo not given) ?
Out: 116

In: Reported growth for O=C(NCCNC(=O)c1cc(S(=O)(=O)NCCc2ccccc2)c(O)c(O)c1O)c1cc(S(=O)(=O)NCCc2ccccc2)c(O)c(O)c1O : what is it?
Out: 96.6

In: Which measured growth value corresponds to O=C(/C=C/c1cc([N+](=O)[O-])ccc1Cl)c1ccccc1 ?
Out: 112

In: Form field: reported growth of CCOc1cccc(/C=N/NC(=O)c2ccc(Nc3ccnc(C(F)(F)F)c3)cc2)c1O
Out: 28.4

In: Sample NC(=Nc1ccccc1)SCCCSC(N)=Nc1ccccc1 — what was its growth?
Out: 101

In: Looking for the measured growth of CCCCn1cnc(-c2cc(-c3ccccc3)cc(C(F)(F)F)c2)n1 , can you help?
Out: 102

====

- System: A498 renal
- test description: NCI-60 one-dose screen, 48 h
- test parameters: 10 µM unless noted
- Experimental: Growth inhibition of the A498 human tumor cell line is measured as a screen for anti-cancer activity. Cells are grown in 96 well plates and exposed to the test compound for 48 hours. Compounds are tested at a single concentration, which is 10^-5 M for most compounds. The reported endpoint is percent growth (GI% or GIPRCNT), where numbers from 0 - 100% represent growth inhibition, and numbers from -100% - 0 represent cell death. For example, a value of 40 represents 60% growth inhibition. […]
This is part of a sample that, as a whole, favours compounds with a hit. Of some 83,000 tested, about 20% had one in any assay. The source made the active and inactive calls. Rule for the calls: active = growth percent below 10; inactive = the rest.
Thanks in advance; please answer with one of these: active, inactive

In: Status in this test for Clc1cc(Br)ccc1-c1ccc(CNCC2CCNCC2)o1 ?
Out: inactive

In: Assay result, entry O=C(Nc1ccc(Cl)c(C(F)(F)F)c1)c1ccc(Nc2ccc(Cl)nn2)cc1 — outcome?
Out: inactive

In: What is the recorded call for this molecule in the test? CN(CCO)c1ccc(N2Cc3ccccc3OC3=C2C(=O)c2c(O)ccc(O)c2C3=O)cn1
Out: active

In: Can you look up the reported call for COc1ccc2[nH]c(C(=O)OCc3ccc4cccc(O)c4n3)cc2c1 for me?
Out: inactive

In: Hi, do you know how CCN(CC)CCCC(C)Nc1cnc(C(=O)Nc2cc(C)cc3cccnc23)cn1 (stereo not given) came out in this test?
Out: inactive

In: Please share the test call associated with O=C(CI)NCCNc1cccc2c(S(=O)(=O)O)cccc12 .
Out: inactive

In: Please state the recorded outcome for this molecule: Fc1ccc(-c2nnc(N3CCOCC3)c3ccccc23)cc1
Out: inactive

In: Test call, this molecule: CCCCN(CCCC)CCC(=O)c1ccc(OC)c2ccccc12
Out: inactive

In: Tell me the assay call for O=C(NO)c1ccc(NCc2csc3ccccc23)cc1 please.
Out: inactive

In: Recorded call for CC1=NN(c2cccc(S(N)(=O)=O)c2)C(=O)C1 ?
Out: inactive

In: Recorded call for COc1ccc(CCN2COc3c([C@@H](C)CCC=C(C)C)ccc(C)c3C2)cc1OC ?
Out: inactive

In: Per the records of this test, what outcome belongs to N#Cc1ccc(NC(=O)Nc2nc3ccc(OC(F)(F)F)cc3s2)cc1 ?
Out: active

In: Called result for COc1ccc(/C(=C\c2cc(OC)c(OC)c(OC)c2)C(=O)Nc2nc3ccc(Cl)cc3s2)cc1
Out: inactive

In: How did this test come out for Cc1c(C)c(C)c([N+](=O)[O-])c([N+](=O)[O-])c1C ?
Out: inactive

In: Look up the recorded call for COc1cc(C2=NOC(c3cc(OC)c(OC)c(OC)c3)C2)ccc1OCCCCOc1cc2c(cc1OC)C(=O)N1CCC[C@H]1C=N2 (stereo not given in full) in this test.
Out: active

In: What classification did COc1ccc(Br)c2ccccc12 end up with in this test?
Out: inactive

In: Call for entry O=C(/C=C/c1cccc([N+](=O)[O-])c1)c1ccc(Nc2nc(N3CCCCC3)nc(N3CCCCC3)n2)cc1 :
Out: inactive

In: Which outcome was entered for the molecule CC(C)c1[nH]ncc1-c1nc2ccc3[nH]ncc3c2c2c1CCCC2 in this test?
Out: active

In: For CC(C)c1ccc(Cn2ccc3c4c(N)nc(NC5CC5)nc4ccc32)cc1 , which call appears in the assay record?
Out: active

In: Could you kindly confirm the outcome this assay logged for CCOCC(O)(c1ccc(Cl)cc1)c1ccc(Cl)cc1 ?
Out: inactive

In: What classification did Cc1nc2ccc(Nc3nc(NCCN4CCOCC4)nc(Nc4ccc(F)cc4)n3)cc2n1Cc1ccccc1 end up with in this test?
Out: active

In: Just curious, what result did C/C(=N\NC(=S)N1CCCCC1)c1ccccn1 get here?
Out: active

In: Just curious, what result did Cc1nc2ccc(Nc3nc(N4CCOCC4)nc(N4CCN(C)CC4)n3)cc2n1Cc1ccccc1 get here?
Out: inactive

In: Lab log entry: Clc1ncnc2scc(C3COc4ccccc4O3)c12 (stereo not given) — outcome as called in the assay?
Out: inactive

In: Given CC1CN(CCCOC(=O)Nc2ccc(Cl)cc2)CCN1C(C)(C)C (stereo not given) , state the outcome it received in this test.
Out: inactive
